This collection of values is drawn from the supplement of paper PMC6089552.

System: A673/TR/shEF
Assay: cell viability (LOESS-normalised, relative to median of negative controls) (log2 ratio); higher = more viable cells (less compound effect), active = hit call of the paper (over 3 MAD below the median)
Details: 2.5 µM; library screen: screen2; EWS-FLI1 expression: low (doxycycline-induced shRNA knockdown); treatment time: 72 h
About 300 (9.4%) of roughly 3,200 compounds showed activity. This excerpt belongs to a sample that is enriched for actives.
Write down the outcome that applies. Available outcomes: active, inactive

Solved entries:
CCN1C[C@]2(C)CC[C@H](O)[C@]34C1[C@H](C[C@H]23)[C@@]1(O)C[C@H](OC)[C@H]2C[C@@H]4[C@@H]1[C@H]2O | inactive
CCC1(C2=NCCN2)Cc2ccccc2O1 (stereo not drawn) | inactive
CC(=O)[C@H]1CC[C@H]2[C@@H]3CC[C@H]4C[C@H](O)CC[C@]4(C)[C@H]3C(=O)C[C@]12C | active

Fill in: this test's call for `NCC#Cc1ccccc1` is ___
inactive

Further, for `Nc1ccc(CCN2CCN(c3cccc(C(F)(F)F)c3)CC2)cc1` ?
inactive

Further, for Nc1ncnc2c1ncn2C1OC2COP(O)(=S)OC2C1O (stereo not drawn) ?
inactive

Further, for C=CCN1CCC23c4c5ccc(O)c4O[C@@H]2/C(=N/NC(=O)c2ccccc2)CCC3(O)[C@H]1C5 (stereo partly drawn) ?
inactive

Further, for Nc1ncnc2c1ncn2[C@@H]1O[C@@H]2COP(O)(=S)O[C@H]2[C@H]1O (stereo partly drawn) ?
inactive

====

System: A673/TR/shEF
Assay: cell viability (LOESS-normalised, relative to median of negative controls) (log2 ratio); higher = more viable cells (less compound effect), active = hit call of the paper (over 3 MAD below the median)
Details: 2.5 µM; library screen: screen1; EWS-FLI1 expression: low (doxycycline-induced shRNA knockdown); treatment time: 72 h
Hit rate of the full screen: of about 3,200 compounds, about 300 (9.4%) showed activity. The sample as a whole holds a higher share of actives than the screen did.
Lab note: anything with cell viability (log2) below 0.06 is marked fulfilled; values at 0.06 or higher are marked not fulfilled.

C[C@H]1C(=O)O[C@@H]2CCN3CC=C(COC(=O)[C@](C)(O)[C@]1(C)O)[C@H]23 | not fulfilled

Bench note: check whether `CC1=C2[C@H]3OC(=O)[C@@H](C)[C@@H]3CC[C@@]2(C)C=CC1=O` shows cell viability (log2) below 0.06
fulfilled

Further, for `COc1c2c(cc3c1OCO3)CCN(C)C2` ?
fulfilled

Further, for `C[C@@H]1C[C@H]2CC(=O)[C@H]3CCCN4CCC[C@H]2[C@]34C1` ?
not fulfilled

Further, for `CN1Cc2c(ccc3c2OCO3)[C@@H]2[C@H]1c1cc3c(cc1C[C@@H]2O)OCO3` ?
not fulfilled

Further, for `CC(C)N(C(=O)CCl)c1ccccc1` ?
fulfilled

====

System: A673/TR/shEF
Test: cell viability (LOESS-normalised, relative to median of negative controls) (log2 ratio); higher = more viable cells (less compound effect), active = hit call of the paper (over 3 MAD below the median)
Details: 0.25 µM; library screen: screen1; EWS-FLI1 expression: high (no doxycycline); treatment time: 72 h
The whole screen tested about 3,200 compounds, of which about 300 (9.4%) showed activity. Shown is part of a subset that was picked to be rich in actives.
Write down the outcome that applies. Available outcomes: yes = active, no = inactive

Solved entries:
O=C(O)COc1ccc(Cl)cc1Cl | no
CCCSP(=O)(OCC)SCCC | no

Fill in: this test's call for COC1C[C@H](O[C@H]2CC[C@]3(C)C4CC[C@]5(C)[C@@H](C6=CC(=O)OC6)CC[C@]5(O)C4CC[C@]3(O)C2)OC(C)[C@H]1O (stereo partly drawn) is ___
yes
